Target: hPPARα (Homo sapiens, UniProt Q07869)
Construct: amino acids 174-475 of PPARα
Sequence (Q07869 167-468 limits assumed): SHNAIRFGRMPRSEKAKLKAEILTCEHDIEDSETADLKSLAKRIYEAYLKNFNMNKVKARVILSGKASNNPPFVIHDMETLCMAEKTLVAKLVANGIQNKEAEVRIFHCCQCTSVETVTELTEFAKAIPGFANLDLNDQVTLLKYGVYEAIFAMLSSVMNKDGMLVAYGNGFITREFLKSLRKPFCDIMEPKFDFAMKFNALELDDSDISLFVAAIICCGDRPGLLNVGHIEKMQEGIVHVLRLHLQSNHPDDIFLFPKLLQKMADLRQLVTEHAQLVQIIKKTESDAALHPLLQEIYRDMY
Experiment: Transient cotransfection assay, GAL4-PPARα chimera in CV-1 cells (human PPARα)
Conditions: transfection assay
Listed here: items and their measured pEC50.
Note on pEC50: it is the negative log10 of concentration, concentration in mol/L.

structure_smiles_string=CCCCCCCN(CCc1ccc(OC(C)(C)C(=O)O)cc1)C(=O)Nc1ccc(F)cc1F observed=6.14

Now, please, on to the next compound.
Which value of pEC50 has been reported for `CCCCCCCN(CCc1ccc(OC(C)(C)C(=O)O)cc1)C(=O)Nc1ccc(F)cc1` in the records?
6.26
